Let's look at some compounds and their measured Efficacy.
- measured.on: Transient receptor potential cation channel subfamily M member 8 (Rattus norvegicus) (UniProt Q8R455)
- Sequence (Q8R455 whole entry, looked up): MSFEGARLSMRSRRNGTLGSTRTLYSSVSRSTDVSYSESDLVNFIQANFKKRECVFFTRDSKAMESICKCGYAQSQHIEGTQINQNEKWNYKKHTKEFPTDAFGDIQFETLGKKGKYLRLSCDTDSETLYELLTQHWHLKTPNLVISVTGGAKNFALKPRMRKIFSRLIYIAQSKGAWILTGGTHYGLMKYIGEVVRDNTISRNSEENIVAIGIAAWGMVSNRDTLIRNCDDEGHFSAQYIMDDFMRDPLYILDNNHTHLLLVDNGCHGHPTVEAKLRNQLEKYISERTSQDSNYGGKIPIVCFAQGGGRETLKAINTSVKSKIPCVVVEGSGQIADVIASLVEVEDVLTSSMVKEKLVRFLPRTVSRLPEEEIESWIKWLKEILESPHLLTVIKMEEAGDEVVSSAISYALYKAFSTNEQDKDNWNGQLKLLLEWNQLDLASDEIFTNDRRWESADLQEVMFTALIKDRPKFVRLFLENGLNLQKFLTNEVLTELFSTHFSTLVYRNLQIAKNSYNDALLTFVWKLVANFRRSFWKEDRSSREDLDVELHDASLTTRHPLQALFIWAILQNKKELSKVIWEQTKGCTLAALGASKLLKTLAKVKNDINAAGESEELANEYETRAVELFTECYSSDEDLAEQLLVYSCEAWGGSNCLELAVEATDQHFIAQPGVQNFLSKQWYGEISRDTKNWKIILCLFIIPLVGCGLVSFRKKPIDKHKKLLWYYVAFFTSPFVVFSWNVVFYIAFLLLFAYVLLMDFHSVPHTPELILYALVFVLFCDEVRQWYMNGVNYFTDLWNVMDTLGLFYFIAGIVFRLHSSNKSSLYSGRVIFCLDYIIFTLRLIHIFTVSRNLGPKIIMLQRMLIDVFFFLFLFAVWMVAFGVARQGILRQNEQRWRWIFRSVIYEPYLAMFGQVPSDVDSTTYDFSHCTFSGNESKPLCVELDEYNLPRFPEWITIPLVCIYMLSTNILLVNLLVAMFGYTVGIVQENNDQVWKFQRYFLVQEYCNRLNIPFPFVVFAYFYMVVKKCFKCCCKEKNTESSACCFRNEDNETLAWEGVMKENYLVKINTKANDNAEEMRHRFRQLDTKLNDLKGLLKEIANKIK
- assay.details: Agonist activity at rat TRPM8 expressed in HEK293 cells assessed as induction of intracellular Ca2+ level by Fluo-4-AM dye based spectrofluorimetry relative to 4 uM ionomycin
- Format: cell-based

Incoming: Name the reported Efficacy value associated with the compound COc1cccc(N2CC=C(c3cccc([N+](=O)[O-])c3)N(C)C2=O)c1
Outgoing: < 10%

Incoming: Moving on to the next compound: COc1cccc(-n2cc(-c3cccc([N+](=O)[O-])c3)[nH]c2=O)c1
Outgoing: < 10%

Incoming: Do the same for O=C1NC(c2cccc([N+](=O)[O-])c2)=CCN1c1cccc(O)c1 please
Outgoing: 62%

Incoming: Same question for O=C1NC(c2cccc([N+](=O)[O-])c2)=CCN1c1ccccc1Br please.
Outgoing: 48.2%

Incoming: Continue with O=c1[nH]c(-c2cccc([N+](=O)[O-])c2)cn1-c1ccccc1O
Outgoing: < 10%

Incoming: Record: O=C1NC(c2ccc([N+](=O)[O-])cc2)=CCN1c1ccc(O)cc1
Outgoing: < 10%

Incoming: Another compound to check: O=C1NC(c2ccc([N+](=O)[O-])cc2)=CCN1c1cccc(O)c1
Outgoing: < 10%

Incoming: Input NC(=O)c1ccccc1N1CC=C(c2ccc([N+](=O)[O-])cc2)NC1=O
Outgoing: < 10%

---
Incoming: Please give the measured Efficacy for this compound: O=C1NC(c2cccc([N+](=O)[O-])c2)=CCN1c1cccc(CO)c1
Outgoing: < 10%

Incoming: Another: CS(=O)(=O)Nc1cccc(-n2cc(-c3cccc([N+](=O)[O-])c3)[nH]c2=O)c1
Outgoing: < 10%
